tested.on: MAO-B (amine oxidase [flavin-containing] B) (Homo sapiens)
Sequence (P27338 whole entry): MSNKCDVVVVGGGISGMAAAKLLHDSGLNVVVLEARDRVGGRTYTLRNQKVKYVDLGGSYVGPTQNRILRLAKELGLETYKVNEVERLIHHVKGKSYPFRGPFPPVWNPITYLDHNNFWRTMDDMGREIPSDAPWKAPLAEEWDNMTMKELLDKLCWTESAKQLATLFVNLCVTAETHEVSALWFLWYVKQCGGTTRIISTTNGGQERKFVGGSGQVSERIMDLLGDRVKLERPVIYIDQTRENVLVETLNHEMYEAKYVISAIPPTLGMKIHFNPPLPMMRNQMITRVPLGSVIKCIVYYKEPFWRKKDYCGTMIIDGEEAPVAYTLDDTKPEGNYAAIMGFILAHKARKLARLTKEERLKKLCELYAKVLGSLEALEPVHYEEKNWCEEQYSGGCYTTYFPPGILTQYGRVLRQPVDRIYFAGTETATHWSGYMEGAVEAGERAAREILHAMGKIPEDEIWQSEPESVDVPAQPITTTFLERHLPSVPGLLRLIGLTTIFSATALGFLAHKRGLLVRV
protocol.details: Inhibition of human liver MAOB at 1 mM relative to MPTP
Could you please report measured inhibition at 1000 µM for the items listed next?
Answers are plain numbers, in %.

Quick one: give me inhibition at 1000 µM for each item below, same order please.
1. C1=C(c2ccccc2)CCNC1
2. CC1=C(c2ccccc2)CCN(C)C1
3. CN1CC=C(c2ccc(Cl)cc2)CC1
4. CC1CN(C)CC=C1c1ccccc1 (stereo unspecified)
5. CN1CC=C(c2ccccc2)CC1
6. CCN1CC=C(c2ccccc2)CC1

68.8
6.2
6.8
13.4
100
10.4

Data origin, for the record: ChEMBL document CHEMBL1151663
